target: Cdk2(N272C) (C177A) (Homo sapiens, UniProt P24941, C177A/N272C); construct: poly-histidine; made in house; host or cells: E. coli; experiment: Kinetic thiol consumption assay with Cdk2 mutant N272C; assay type: binding; conditions: Protein: Cdk2; cysteine position N272C; additional mutation C177A; in h^-1
A collection of compounds and their measured Rate constant with Cdk2 N272C
// return just the number, without any unit appended

Reference set, count: 4
compound="C=CC(=O)N1CC2(CCC2)c2c(F)cccc21 [CA-188]" experimental_target="Cdk2(N272C) (C177A) (Homo sapiens, UniProt P24941, C177A/N272C)" value=0.06304
compound="C=CC(=O)NCc1ccc(-c2csnn2)cc1 [BN-66]" experimental_target="Cdk2(N272C) (C177A) (Homo sapiens, UniProt P24941, C177A/N272C)" value=0.002323
compound="C=CC(=O)N1CCCN2C(=O)CCC12c1ccc(OC)cc1 (centres unmarked) [EL-1168]" experimental_target="Cdk2(N272C) (C177A) (Homo sapiens, UniProt P24941, C177A/N272C)" value=0.008745
compound="C=CC(=O)NC(C)c1cc(OC)c(OC)c(OC)c1 (centres unmarked) [EL-1101]" experimental_target="Cdk2(N272C) (C177A) (Homo sapiens, UniProt P24941, C177A/N272C)" value=0.005051

Exam item: Indicate the recorded Rate constant with Cdk2 N272C value for this compound: C=CC(=O)N1CCC2(CCCCCC2)C1 [CA-093]
Marked response: 0.005578

----------
target: Cdk2(S181C) (C177A) (Homo sapiens, UniProt P24941, C177A/S181C); construct: poly-histidine; made in house; host or cells: E. coli; assay: Kinetic thiol consumption assay with Cdk2 mutant S181C; format: binding; settings: Protein: Cdk2; cysteine position S181C; additional mutation C177A; in h^-1
Recorded Metric: Rate constant with Cdk2 S181C
// return just the number, without any unit appended

Reference set, count: 3
compound="C=CC(=O)NCC1CN(C2CC2)CCO1 (centres unmarked) [CA-038]" experimental_target="Cdk2(S181C) (C177A) (Homo sapiens, UniProt P24941, C177A/S181C)" value=0.005333
compound="C=CC(=O)N1CCCC1c1ccc(OC)cc1 (centres unmarked) [EL-1062]" experimental_target="Cdk2(S181C) (C177A) (Homo sapiens, UniProt P24941, C177A/S181C)" value=0.007918
compound="C=CC(=O)Nc1ccccc1C#N [EL-1178]" experimental_target="Cdk2(S181C) (C177A) (Homo sapiens, UniProt P24941, C177A/S181C)" value=0.02566

Exam item: Indicate the recorded Rate constant with Cdk2 S181C value for this compound: C=CC(=O)NCc1ccccc1 [CA-009]
Marked response: 0.003288

----------
Target: Cdk2(R122C) (C177A) (Homo sapiens, UniProt P24941, C177A/R122C)
Construct: poly-histidine; made in house; host or cells: E. coli
Assay: Kinetic thiol consumption assay with Cdk2 mutant R122C
Format: binding
Settings: Protein: Cdk2; cysteine position R122C; additional mutation C177A; in h-1
Procedure: To wells containing 150 μL thiol (Cdk2 or model thiol) (5 μM) in degassed phosphate buffer (pH 8) was added immobilized TCEP beads (2% v/v). After incubation of the fluorescence plates for 1 hour at room temperature, fluorescence measurements (excitation/emission of 380/470 nm) were taken on a PerkinElmer EnVision multilabel plate reader and processed with EnVision Workstation version 1.12. Fluorescence measurements were normalized against a DMSO/thiol only control and plotted against time. […]
Returns: string. Value is Satisfied if measured Rate constant with Cdk2 R122C is below 0.003, and Not satisfied if it is greater than or equal to it.

Would you please look over these solved cases?
compound="C=CC(=O)N1CCN(c2ccccc2C(N)=O)CC1 [EL-1155]" experimental_target="Cdk2(R122C) (C177A) (Homo sapiens, UniProt P24941, C177A/R122C)" assigned_label="Not satisfied"
compound="C=CC(=O)N1CCCC(N2C(=O)CC3(CCCC3)C2=O)C1 (centres unmarked) [CA-236]" experimental_target="Cdk2(R122C) (C177A) (Homo sapiens, UniProt P24941, C177A/R122C)" assigned_label=Satisfied
compound="C=CC(=O)N1CC(CCN2CCCC2=O)c2ccccc21 (centres unmarked) [CA-089]" experimental_target="Cdk2(R122C) (C177A) (Homo sapiens, UniProt P24941, C177A/R122C)" assigned_label="Not satisfied"
compound="C=CC(=O)Nc1nc2ccccc2n1CCc1ccccn1 [CA-144]" experimental_target="Cdk2(R122C) (C177A) (Homo sapiens, UniProt P24941, C177A/R122C)" assigned_label="Not satisfied"

Exam item: Is Rate constant with Cdk2 R122C strictly under 0.003 for the entry C=CC(=O)NC(C)c1ccc2c(c1)OCO2 (centres unmarked) [EL-1051] ?
Marked response: Satisfied

Exam item: Is Rate constant with Cdk2 R122C strictly under 0.003 for the entry C=CC(=O)N1CCN(c2cccc3cccnc23)CC1 [EL-1156] ?
Marked response: Not satisfied

Exam item: Is Rate constant with Cdk2 R122C strictly under 0.003 for the entry C=CC(=O)NC1CCN(Cc2ccccc2)CC1 [BN-78] ?
Marked response: Satisfied

Exam item: Is Rate constant with Cdk2 R122C strictly under 0.003 for the entry C=CC(=O)N1CCCN(Cc2noc(C3CC3)n2)CC1 [CA-079] ?
Marked response: Not satisfied

Exam item: Is Rate constant with Cdk2 R122C strictly under 0.003 for the entry C=CC(=O)N1CC(OCCN(CC)CC)C1 [CA-145] ?
Marked response: Satisfied

Exam item: Is Rate constant with Cdk2 R122C strictly under 0.003 for the entry C=CC(=O)Nc1cccc(Nc2ncnc3cc(OC)c(OC)cc23)c1 [GC248] ?
Marked response: Not satisfied

Exam item: Is Rate constant with Cdk2 R122C strictly under 0.003 for the entry C=CC(=O)Nc1nc2cc3c(cc2s1)OC(F)(F)O3 [CA-142] ?
Marked response: Satisfied

----------
biological target: Cdk2(S276C) (C177A) (Homo sapiens, UniProt P24941, C177A/S276C); construct: poly-histidine; made in house; host or cells: E. coli; assay: Kinetic thiol consumption assay with Cdk2 mutant S276C; assay type: binding; set-up: key: rate constant with Cdk2 ÷ rate constant with model thiol (fold); details: Cdk2 S276C, additional mutation C177A
A collection of molecules and their measured Rate enhancement, Cdk2 S276C
// return just the number, without any unit appended

Reference set, count: 5
molecule="C=CC(=O)N1CC2CN(Cc3ccccc3)CC2C1 (stereo not drawn) [CA-207]" value=0.1692
molecule="C=CC(=O)Nc1nc2c(s1)CCCCCC2 [CA-170]" value=0.7229
molecule="C=CC(=O)N1CCc2sccc2C1c1cccs1 (stereo not drawn) [CA-056]" value=1.776
molecule="C=CC(=O)N1CCN(c2ccccc2[N+](=O)[O-])CC1 [EL-1134]" value=1.414
molecule="C=CC(=O)NC1(c2noc(C3CC3)n2)CCCC1 [CA-044]" value=0.1116

Exam item: Supply Rate enhancement, Cdk2 S276C measured with Cdk2(S276C) (C177A) (Homo sapiens, UniProt P24941, C177A/S276C) for C#CCN1CCCN(C(=O)C=C)CC1 [CA-196] .
Marked response: 0.4186

Exam item: Supply Rate enhancement, Cdk2 S276C measured with Cdk2(S276C) (C177A) (Homo sapiens, UniProt P24941, C177A/S276C) for C=CC(=O)N(Cc1ccco1)C12CC3CC(CC(C3)C1)C2 [CA-157] .
Marked response: 68.22

Exam item: Supply Rate enhancement, Cdk2 S276C measured with Cdk2(S276C) (C177A) (Homo sapiens, UniProt P24941, C177A/S276C) for C=CC(=O)NC1C2C3CCC(C3)C12 (stereo not drawn) [CA-097] .
Marked response: 0.8141

Exam item: Supply Rate enhancement, Cdk2 S276C measured with Cdk2(S276C) (C177A) (Homo sapiens, UniProt P24941, C177A/S276C) for C=CC(=O)NCC1CCCN1S(=O)(=O)c1ccc(C)cc1 (stereo not drawn) [CA-118] .
Marked response: 0.4087

Exam item: Supply Rate enhancement, Cdk2 S276C measured with Cdk2(S276C) (C177A) (Homo sapiens, UniProt P24941, C177A/S276C) for C=CC(=O)Nc1[nH]nc(C2CC2)c1-c1ccc2c(c1)OCO2 [CA-041] .
Marked response: 0.0064

Exam item: Supply Rate enhancement, Cdk2 S276C measured with Cdk2(S276C) (C177A) (Homo sapiens, UniProt P24941, C177A/S276C) for C=CC(=O)NCCNC(=O)c1ccccc1 [CA216] .
Marked response: 1.648

Exam item: Supply Rate enhancement, Cdk2 S276C measured with Cdk2(S276C) (C177A) (Homo sapiens, UniProt P24941, C177A/S276C) for C=CC(=O)NC1CCN(Cc2ccccc2)CC1 [BN-78] .
Marked response: 0.1622

Exam item: Supply Rate enhancement, Cdk2 S276C measured with Cdk2(S276C) (C177A) (Homo sapiens, UniProt P24941, C177A/S276C) for C=CC(=O)Nc1ccc(C(=O)c2ccccc2)cc1 [CA-219] .
Marked response: 1.204

Exam item: Supply Rate enhancement, Cdk2 S276C measured with Cdk2(S276C) (C177A) (Homo sapiens, UniProt P24941, C177A/S276C) for C=CC(=O)N1CC(n2cccn2)C1 [CA-173] .
Marked response: 1.187

Exam item: Supply Rate enhancement, Cdk2 S276C measured with Cdk2(S276C) (C177A) (Homo sapiens, UniProt P24941, C177A/S276C) for FC(F)(F)c1cc(Cl)ncc1Br [EN008] .
Marked response: 1.5439E−13
